system: PPARg:RXRa 90nM:30nM, anti-RXR (NR concentration 90 nM, RXRa partner concentration 30 nM); assay: PBM binding z-score (relative to random genomic background probes); higher = stronger binding; sequences stand for … in GC…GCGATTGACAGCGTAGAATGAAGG
Tick 1 if PBM binding z-score is 0.8 or greater. Tick -1 if PBM binding z-score is less than 0.8.

[Q] Entry CGTCAAAGTTAAACTAAGGTAACGTAAAGCACGC : is its PBM binding z-score no less than 0.8?
[A] -1

[Q] Entry AGTCAAAGTTCAGGACGAGGCAACGTAAAGCACG : is its PBM binding z-score no less than 0.8?
[A] 1

[Q] Entry TAGCCTAGGTCAGATCGGGCCACTATACGCTATA : is its PBM binding z-score no less than 0.8?
[A] -1

[Q] Entry TTACCAAAGTGAAGGTCGTTGATCCCTCTGTAGA : is its PBM binding z-score no less than 0.8?
[A] -1

[Q] Entry TCTATTAGTTGATTAAGGCAACCGAAACAGCGGA : is its PBM binding z-score no less than 0.8?
[A] 1

[Q] Entry CCTGCTAGGTCATGGTCAACTAATCTACAGTATG : is its PBM binding z-score no less than 0.8?
[A] 1

[Q] Entry CGTCCAAGGTTAATGCTAGGTCAGTGAAAGCATT : is its PBM binding z-score no less than 0.8?
[A] -1

[Q] Entry GGAACGAGGGCTAGTTGATAGCAGAGTTTGATGG : is its PBM binding z-score no less than 0.8?
[A] -1

[Q] Entry GCTATTAGTTGAAAGGGAAACCGAATGATTCTCG : is its PBM binding z-score no less than 0.8?
[A] 1

[Q] Entry ATACAAAGGTGATCGTGAGGTCGTTGATACTAAC : is its PBM binding z-score no less than 0.8?
[A] 1

[Q] Entry GCGAATGGGGCATCAGCAGGTTACCATAACTTAA : is its PBM binding z-score no less than 0.8?
[A] -1

[Q] Entry TCTAATAGTTGATTAGGGCAACCGAAACAGCGGA : is its PBM binding z-score no less than 0.8?
[A] 1

====

system: PXR:RXRa (NR concentration 270 nM, RXRa partner concentration 90 nM); assay: PBM binding z-score (relative to random genomic background probes); higher = stronger binding; sequences stand for … in GC…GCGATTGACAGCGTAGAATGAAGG
Tick Criterion met if PBM binding z-score is 0.8 or greater. Tick Criterion not met if PBM binding z-score is less than 0.8.

[Q] Entry CAGGCTAGGTCAGGGCCAGTATAGGAGGAACGTT : is its PBM binding z-score no less than 0.8?
[A] Criterion not met

[Q] Entry TGAATGCGGTTAAAGATCAGGGAACGTGGCGTCG : is its PBM binding z-score no less than 0.8?
[A] Criterion not met

[Q] Entry ACTAGCAGGCCAAGTTTAGGTCACTCAAACAAAG : is its PBM binding z-score no less than 0.8?
[A] Criterion met

[Q] Entry TCTATTAGTAGAAGGGCAACCGACGAGTCCGTTT : is its PBM binding z-score no less than 0.8?
[A] Criterion not met

[Q] Entry CCTACTGGGCCAAAGGTCATTGATTCCAATGCTC : is its PBM binding z-score no less than 0.8?
[A] Criterion met

[Q] Entry ATCTCTCGGTAACAAGTTCAGTGAAAGAGAGGAC : is its PBM binding z-score no less than 0.8?
[A] Criterion met

[Q] Entry GCGACTGGGGAATCAGCAGGTTACCATAACTTAA : is its PBM binding z-score no less than 0.8?
[A] Criterion not met

[Q] Entry ACTTACGGGTCAACGAGGTAATAGCACGCGTATA : is its PBM binding z-score no less than 0.8?
[A] Criterion met

[Q] Entry TCATATAGGTAAACCGGTGAAAGTCCGTAAGTTA : is its PBM binding z-score no less than 0.8?
[A] Criterion not met

[Q] Entry TCGTATAGGTAAAGGTGAAAGTCGAACGATATGA : is its PBM binding z-score no less than 0.8?
[A] Criterion not met

[Q] Entry TCATATAGGTAAATACTAGGTGAAAGTCCGATCT : is its PBM binding z-score no less than 0.8?
[A] Criterion not met

[Q] Entry ATCTCCAGGTAAAAGTTCAGTGAATCCCGAGGAT : is its PBM binding z-score no less than 0.8?
[A] Criterion met

====

system: VDR homodimer (NR concentration 270 nM); experiment: PBM binding z-score (relative to random genomic background probes); higher = stronger binding; sequences stand for … in GC…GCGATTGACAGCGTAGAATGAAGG
Measured quantity: PBM binding z-score
Please reply with the value in numeric form only.

[Q] Which PBM binding z-score reading was recorded for the sequence TATACAGGGTCAAAGGCCAGAGGACGAATGTCGA ?
[A] 2.9

[Q] Which PBM binding z-score reading was recorded for the sequence CCTACTGGGCCAAAGTTCATTGATTCCAATGCTC ?
[A] 3.96

[Q] Which PBM binding z-score reading was recorded for the sequence CAAACTAGGTCACCGGAAGGTCGAAGTCCGCATG ?
[A] 1.97

[Q] Which PBM binding z-score reading was recorded for the sequence TAGCCTACGTCATGGGCCAGTATACCACGCGAAC ?
[A] -0.575

[Q] Which PBM binding z-score reading was recorded for the sequence TCTACTAGTTGAAGGGCAACCGACGAGTCCGTTT ?
[A] 0.707

[Q] Which PBM binding z-score reading was recorded for the sequence CAAACTAGGTCACCGGAAGGTCAAAGTGCGCATG ?
[A] 3.53
